Cited source for all entries: PubChem BioAssay AID1159580

Below, each entry is listed alongside its reported normalized growth.
Assay: chemical genetic growth profiling, strain panel (AID 1159580);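 note: tested at 20 µM; growth read once vehicle control cultures reached saturation at 30 °C; 1 = growth at the plate median or of vehicle wells; lower values mean less growth of the strain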
Details: S. cerevisiae deletion strains, growth OD, locus YDR069C, strain doa4, active compounds read low
The campaign covered roughly 5,500 compounds. About 2,000 (36%) were called active. About 18% were inconclusive and are not listed. The list shows a part of the results.
experimental-endpoint: normalized growth

[
  {
    "molecule": "C1CCN2CC3CC(CN4CCCCC34)C2C1 (stereo unspecified)",
    "readout-value": 1.03
  },
  {
    "molecule": "C1CCN2C[C@@H]3C[C@H](CN4CCCC[C@@H]34)[C@H]2C1",
    "readout-value": 1.01
  },
  {
    "molecule": "C=C(C)[C@H]1CC=C(C(=O)O)CC1",
    "readout-value": 0.999
  },
  {
    "molecule": "O=C1CCCC2C3CC(CN12)[C@@H]1CCCCN1C3 (stereo partly specified)",
    "readout-value": 1.01
  },
  {
    "molecule": "C=C(C)C1CC=C(CO)CC1 (stereo unspecified)",
    "readout-value": 0.978
  },
  {
    "molecule": "Nc1ccc(S(=O)(=O)Nc2ccccn2)cc1",
    "readout-value": 1.02
  }
]
